test target: UniProt Q386R0
Sequence (Q386R0 entry or part of it): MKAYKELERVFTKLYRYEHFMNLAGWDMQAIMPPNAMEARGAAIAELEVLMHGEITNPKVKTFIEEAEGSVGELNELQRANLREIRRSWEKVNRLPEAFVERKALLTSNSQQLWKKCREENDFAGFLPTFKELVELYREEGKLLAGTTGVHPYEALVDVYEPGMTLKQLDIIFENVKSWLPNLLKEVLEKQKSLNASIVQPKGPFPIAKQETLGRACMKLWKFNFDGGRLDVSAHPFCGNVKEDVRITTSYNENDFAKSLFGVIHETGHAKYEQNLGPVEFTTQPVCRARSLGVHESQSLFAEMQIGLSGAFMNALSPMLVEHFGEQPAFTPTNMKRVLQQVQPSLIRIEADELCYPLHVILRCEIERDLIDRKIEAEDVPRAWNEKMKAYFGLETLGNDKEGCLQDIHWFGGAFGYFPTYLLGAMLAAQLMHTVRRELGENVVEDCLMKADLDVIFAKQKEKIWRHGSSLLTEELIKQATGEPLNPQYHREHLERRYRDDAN
assay remarks: Continuous fluorogenic (FRET) TbMCP-1 assay with Abz-RFFK(Dnp)-OH, primary and secondary screening
Format: biochemical
details: single inhibitor concentration 25 µM; read-out: TbMCP-1 Primary screening Inhibition (%)
Cut-off 70% on inhibition at 25 µM, inclusive. At or above means yes (1); below means no (0).

I'd appreciate it if you could say whether N#Cc1ccc(S(=O)(=O)N2CCN(Cc3cccc(-c4ccncc4)c3)CC2)cc1 [TCMDC-143620] has inhibition at 25 µM at least equal to 70%.
no (0)

I'd appreciate it if you could say whether CCOC(=O)c1cn[nH]c1S(=O)(=O)N1CCC1c1ccccc1 (stereo not drawn) [TCMDC-143456] has inhibition at 25 µM at least equal to 70%.
no (0)

I'd appreciate it if you could say whether O=c1[nH]c(C=Cc2cccc(OCCOc3ccccc3)c2)nc(O)c1[N+](=O)[O-] [TCMDC-143209] has inhibition at 25 µM at least equal to 70%.
no (0)

I'd appreciate it if you could say whether Fc1ccccc1N1CC2CCN(c3cccnc3)CC2C1 (stereo not drawn) [TCMDC-143422] has inhibition at 25 µM at least equal to 70%.
yes (1)

I'd appreciate it if you could say whether CCn1c(-c2nonc2N)nc2c(C(C)O)ncc(OC(CN)c3ccccc3)c21 (stereo not drawn) [TCMDC-143323] has inhibition at 25 µM at least equal to 70%.
yes (1)

All figures here come from paper PMC6675120.
